Reported values of half-life for individual entries
assay: Half life of the compound in GSH; format: physicochemical; conditions: GSH (glutathione)

[
  {
    "SMILES CODE": "O=C(c1ccccc1)N1Cc2ccccc2C1=O",
    "RESULT UNIT": "min",
    "COMPARISON SYMBOL": ">",
    "half-life": 10000
  },
  {
    "SMILES CODE": "O=C(c1ccccc1)N1Cc2ccccc2S1(=O)=O",
    "RESULT UNIT": "min",
    "COMPARISON SYMBOL": ">",
    "half-life": 10000
  },
  {
    "SMILES CODE": "CCCNC(=O)N1C(=O)c2ccccc2S1(=O)=O",
    "RESULT UNIT": "min",
    "COMPARISON SYMBOL": "=",
    "half-life": 46.5
  },
  {
    "SMILES CODE": "O=C(NCc1ccccc1F)N1C(=O)c2ccccc2S1(=O)=O",
    "RESULT UNIT": "min",
    "COMPARISON SYMBOL": "=",
    "half-life": 35.9
  },
  {
    "SMILES CODE": "O=C(OCc1ccccc1)N1C(=O)c2ccccc2S1(=O)=O",
    "RESULT UNIT": "min",
    "COMPARISON SYMBOL": "<",
    "half-life": 1
  }
]
